Would you kindly list IC50 for each of these molecules?
Biological target: catalytic domain (JH1, amino acids 808-1132) of human JAK2 (Homo sapiens (Human))
Sequence (O60674 808-1132): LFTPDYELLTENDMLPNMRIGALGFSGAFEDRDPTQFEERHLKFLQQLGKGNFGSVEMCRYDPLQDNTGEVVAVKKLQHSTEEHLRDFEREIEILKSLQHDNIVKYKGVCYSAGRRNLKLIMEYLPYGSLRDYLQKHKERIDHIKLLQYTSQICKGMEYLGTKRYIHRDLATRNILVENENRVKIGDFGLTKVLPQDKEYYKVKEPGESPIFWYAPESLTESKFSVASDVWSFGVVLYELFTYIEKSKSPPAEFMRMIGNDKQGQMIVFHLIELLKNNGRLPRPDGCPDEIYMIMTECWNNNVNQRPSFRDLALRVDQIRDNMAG
Experiment: JAK2 HTRF Enzyme Activity Assay
Conditions: JAK2 0.015 nM, ATP (30 μM or 1 mM), 60 minutes at 25° C.
Counter-ions that a name gives are not always drawn.

Problem: Please look up its IC50: CS(=O)(=O)C1CCN(Cc2ccc(-c3cc4c5c(cnc4[nH]3)NC(=O)N(C3CCCCC3)C5)cc2)CC1 [Example 5]
Solution: ≤ 0.1 µM

Problem: Please look up its IC50: CC1c2c(cnc3[nH]c(-c4ccc(CN5CCC(S(C)(=O)=O)CC5)cc4)cc23)N(C)C(=O)N1c1ccc(C(=O)O)cc1 (racemic) [Example 10]
Solution: 1 to 2.5 µM

Problem: Please look up its IC50: CN1C(=O)N(c2ccc(C(=O)O)cc2)Cc2c1cnc1[nH]c(-c3ccc(CN4CCC(S(C)(=O)=O)CC4)cc3)c(I)c21 [Example 25, Trifluoroacetic Acid Salt]
Solution: 1 to 2.5 µM

Problem: Please look up its IC50: CN1C(=O)N(c2ccc(C(=O)O)cc2)Cc2c1cnc1[nH]c(-c3ccc(CN4CCC(S(C)(=O)=O)CC4)cc3)c(C#N)c21 [Example 24, Trifluoroacetic Acid Salt]
Solution: > 2.5 µM

Problem: Please look up its IC50: CN1C(=O)N(c2ccccc2)Cc2c1cnc1[nH]c(-c3ccc(CN4CCC(S(C)(=O)=O)CC4)cc3)cc21 [Example 2]
Solution: ≤ 0.1 µM

Problem: Please look up its IC50: COc1ccc(-c2c(C3CC3)[nH]c3ncc4c(c23)CN(c2ccc(C(=O)O)cc2)C(=O)N4C)cc1 [Example 26]
Solution: > 2.5 µM

Problem: Please look up its IC50: CS(=O)(=O)C1CCN(Cc2ccc(-c3cc4c5c(cnc4[nH]3)NC(=O)N(C3CCN(S(N)(=O)=O)CC3)C5)cc2)CC1 [Example 7]
Solution: ≤ 0.1 µM

Problem: Please look up its IC50: CC(=O)NCc1ccc(-c2c(-c3ccc(CN4CCC(S(C)(=O)=O)CC4)cc3)[nH]c3ncc4c(c23)CN(C(C)(C)C)C(=O)N4C)cc1 [Example 16]
Solution: ≤ 0.1 µM

* * *

Would you kindly list IC50 for each of these compounds?
Biological target: catalytic domain (JH1, amino acids 808-1132) of human JAK2 (Homo sapiens (Human))
Assay: JAK2 HTRF Enzyme Activity Assay
Conditions: JAK2 0.015 nM, ATP (30 μM or 1 mM), 60 minutes at 25° C.
Description: Example D. JAK2 HTRF Enzyme Activity Assay JAK2 enzyme activity assays utilize catalytic domain (JH1, amino acids 808-1132) of human JAK2 expressed as N-terminal His-tagged protein in a baculovirus expression system (BPS Bioscience, Catalog #40450). The assays was conducted in black 384-well polystyrene plates in a final reaction volume of 20 μL. […] HTRF signals were read after 30 minutes incubation at room temperature on a PHERAstar FS plate reader (BMG LABTECH). […]
Where a name gives a salt, the structure may show the parent alone.

Problem: Give IC50 (catalytic domain (JH1, amino acids 808-1132) of human JAK2 (Homo sapiens (Human))) of the following compound: CC(=O)N1CC=C(c2c(-c3ccc(CN4CCC(S(C)(=O)=O)CC4)cc3)[nH]c3ncc4c(c23)CN(c2ccc(C(=O)O)cc2)C(=O)N4C)CC1 [Example 20, Trifluoroacetic Acid Salt]
Solution: > 2500 nM

Problem: Give IC50 (catalytic domain (JH1, amino acids 808-1132) of human JAK2 (Homo sapiens (Human))) of the following compound: CN1C(=O)N(c2ccc(C(=O)O)cc2)Cc2c1cnc1[nH]c(-c3ccc(CN4CCC(S(C)(=O)=O)CC4)cc3)c(-c3ccn(C)c3)c21 [Example 22, trifluoroacetic acid salt]
Solution: 1000 to 2500 nM

Problem: Give IC50 (catalytic domain (JH1, amino acids 808-1132) of human JAK2 (Homo sapiens (Human))) of the following compound: CN1C(=O)NCc2c1cnc1[nH]c(-c3ccc(CN4CCC(S(C)(=O)=O)CC4)cc3)cc21
Solution: ≤ 100 nM
